Where do these numbers come from? They come from ChEMBL document CHEMBL4665778.

This section presents compounds with their documented clearance values.
# procedure details: Clearance in Sprague-Dawley rat at 0.25 mg/kg, iv by LC-MS/MS analysis
# Type: ADME, organism-based
# conditions: in vivo
recorded endpoint: clearance (mL/min/kg)

| smiles repr | recorded number |
| --- | --- |
| CC(C)c1cc(-c2cnn3ccc(-c4cc5c(c(C(F)(F)F)c4)C(=O)N([C@@H](C)C4CC4)C5)nc23)ccc1C(=O)O | 86.7 |
| C[C@@H](C1CC1)N1Cc2cc(-c3ccn4nc(N)c(-c5cnn(C)c5)c4n3)cc(C(F)(F)F)c2C1=O | 13 |

====

# procedure details: Volume of distribution at steady state in Sprague-Dawley rat at 0.25 mg/kg, iv by LC-MS/MS analysis
# Format: ADME, organism-based
# conditions: in vivo, read-out: Vdss
Parameter: Vd. Scope: all listed entries.

| smiles repr | Vd / L/kg |
| --- | --- |
| C[C@@H](C1CC1)N1Cc2cc(-c3ccn4nc(N)c(-c5cnn(C)c5)c4n3)cc(C(F)(F)F)c2C1=O | 1.2 |
| CC(C)c1cc(-c2cnn3ccc(-c4cc5c(c(C(F)(F)F)c4)C(=O)N([C@@H](C)C4CC4)C5)nc23)ccc1C(=O)O | 25 |

====

# procedure details: Intrinsic clearance in human hepatocytes assessed per 10^6 cells at 0.5 uM by LC-MS/MS analysis
# Type: ADME, cell-based, Hepatocyte
# conditions: read-out: CLH
Entries annotated with measured hepatocyte CLint at 0.5 µM

| smiles repr | inequality symbol | hepatocyte CLint at 0.5 µM [µL/min/1e6 cells] |
| --- | --- | --- |
| C[C@@H](C1CC1)N1Cc2cc(-c3ccn4nc(N)c(-c5cnn(C)c5)c4n3)cc(C(F)(F)F)c2C1=O | = | 3.3 |
| CC(=O)Nc1cc2nc(-c3cc4c(c(C(F)(F)F)c3)C(=O)N([C@@H](C)C3CC3)C4)ccn2n1 | = | 2.4 |
| CC(C)c1cc(-c2cnn3ccc(-c4cc5c(c(C(F)(F)F)c4)C(=O)N([C@@H](C)C4CC4)C5)nc23)ccc1C(=O)O | < | 1.2 |

====

Observed IC50, system PI3K p110 beta/p85 alpha (Homo sapiens, UniProt P42338).

| molecule | IC50 |
| --- | --- |
| CC(=O)Nc1nc2cc(-c3cc(C)c4c(c3)CN([C@@H](C)C3CC3)C4=O)ccc2[nH]1 (racemic) | > 10 µM |
| CC(C)c1cc(-c2cnn3ccc(-c4cc5c(c(C(F)(F)F)c4)C(=O)N([C@@H](C)C4CC4)C5)nc23)ccc1C(=O)O | 11.6 µM |
| C[C@@H](C1CC1)N1Cc2cc(-c3ccn4nc(N)c(-c5cnn(C)c5)c4n3)cc(C(F)(F)F)c2C1=O | > 15 µM |
| Cc1cc(-c2ccc3nc(N)cn3n2)cc2c1C(=O)N([C@@H](C)C1CC1)C2 (racemic) | > 10 µM |
| Cc1cc(-c2ccn3nc(N)nc3c2)cc2c1C(=O)N([C@@H](C)C1CC1)C2 | > 10 µM |
| CC(C)c1cc(-c2c(N)nn3ccc(-c4cc5c(c(C(F)(F)F)c4)C(=O)N([C@@H](C)C4CC4)C5)nc23)ccc1C(=O)O | 10.1 µM |
